system_tested: T1, Human IL-23 no linker (human, UniProt P29460 23-328)
T1 construct: also called recombinant IL-23 without linker
T1 sequence 1: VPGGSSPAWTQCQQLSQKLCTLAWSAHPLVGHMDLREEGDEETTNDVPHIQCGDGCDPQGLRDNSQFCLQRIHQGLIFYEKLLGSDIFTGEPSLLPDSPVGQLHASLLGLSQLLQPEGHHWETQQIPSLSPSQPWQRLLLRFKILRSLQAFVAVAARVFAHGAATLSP
T1 sequence 2: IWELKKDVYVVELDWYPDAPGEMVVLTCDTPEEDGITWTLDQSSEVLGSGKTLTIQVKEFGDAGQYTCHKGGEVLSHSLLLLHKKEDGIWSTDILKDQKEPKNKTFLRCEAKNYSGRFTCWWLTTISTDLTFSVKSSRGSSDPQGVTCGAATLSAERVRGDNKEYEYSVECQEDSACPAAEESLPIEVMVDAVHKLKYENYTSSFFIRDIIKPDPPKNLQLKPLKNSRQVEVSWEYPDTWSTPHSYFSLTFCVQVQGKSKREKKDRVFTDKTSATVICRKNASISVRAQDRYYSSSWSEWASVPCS
test_details: SPR, ProteOn XPR36, global 1:1 fit
kon for assorted binders
Record the value in M⁻¹ s⁻¹, omitting the unit from your answer.

>>> value_reported("Antibody D (antibody, human IgG1, kappa, L234A L235A, V domains shown, Humanized 6B8, human IgG1-KO (L234A/L235A) / kappa; also called 6B8-IgG1KO-5 with IgK-65; 6B8CVH-05 / 6B8CVK-65) VH: QVQLVQSGAEVKKPGSSVKVSCKASGFTFTDQTIHWVRQAPGQGLEWMGYIYPRDDSPKYNENFKGKVTLTADKSTSTAYMELSSLRSEDTAVYYCAIPDRSGYAWFIYWGQGTLVTVSS VL: DIQMTQSPSSLSASVGDRVTITCKASRDVAIAVAWYQQKPGKVPKLLLFWASTRHTGVPDRFSGSGSGTDFTLTISSLQPEDLADYYCHQYSSYPFTFGQGTKLEIKR")
366000
>>> value_reported("Antibody B (antibody, human IgG1, kappa, L234A L235A, V domains shown, Humanized 6B8, human IgG1-KO (L234A/L235A) / kappa; also called 6B8-IgG1KO-5 with IgK-66; 6B8CVH-05 / 6B8CVK-66) VH: QVQLVQSGAEVKKPGSSVKVSCKASGFTFTDQTIHWVRQAPGQGLEWMGYIYPRDDSPKYNENFKGKVTLTADKSTSTAYMELSSLRSEDTAVYYCAIPDRSGYAWFIYWGQGTLVTVSS VL: DIQMTQSPSSLSASVGDRVTITCKASRDVAIAVAWYQQKPGKVPKLLIYWASTRHTGVPSRFSGSGSRTDFTLTISSLQPEDVADYFCHQYSSYPFTFGSGTKLEIKR")
517000
>>> value_reported("antibody C1273 (disclosed in WO 2007/005955) (antibody, V domains shown) VH: DVNLVESGGGLVKPGGSLKLSCAASGFTFSSYTMSWVRQTPEKRLEWVATISSGGTYTYYPDSVKGRFTISRDNAKNTLYLQMSSLKSEDTAMFYCTRDNHAYDRGPFFDYWGQGATLTVSS VL: DIVMSQSPSSLVVSVGEKVTMSCKSSQNLFYRSNQKNHLAWYQQKPGQSPTLLIYWTSTRESGVPDRFTGSGSGTDFTLTISRVKAEDLAVYYCQQYYSYPPTFGGGTKLEIK")
360000

Proceeding to the next binder to report its kon.
Give the measured kon of Antibody C (antibody, human IgG1, kappa, L234A L235A, V domains shown, Humanized 6B8, human IgG1-KO (L234A/L235A) / kappa; also called 6B8-IgG1KO-2 with IgK-65; 6B8CVH-02 / 6B8CVK-65) VH: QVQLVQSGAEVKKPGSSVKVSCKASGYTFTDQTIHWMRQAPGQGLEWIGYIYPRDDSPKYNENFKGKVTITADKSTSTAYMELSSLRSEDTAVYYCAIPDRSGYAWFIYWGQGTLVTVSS VL: DIQMTQSPSSLSASVGDRVTITCKASRDVAIAVAWYQQKPGKVPKLLLFWASTRHTGVPDRFSGSGSGTDFTLTISSLQPEDLADYYCHQYSSYPFTFGQGTKLEIKR . 454000
